# target_under_test: pooled human IgG
outcome_measure: Enzyme Activity Endpoint Assay (purified): IgG

INSERT INTO results (protein, reported) VALUES
  ('PRT-66 (protein) MANQEIRYSEVTPYHVTSVWTKGVTPPANFTQGEDVFHAPYVANQGWYDITKTFNGKDDLLCGAATAGNMLHWWFDQNKDYIKRYLEEHPEKQKINFNGEQMFDVKEAIDTKNHQLDSKLFEYFKEKAFPYLSTKHLGVFPDHVIDMFINGYRLSLTNHGPTPVKEGSKDPRGGIFDAVFTRGDQSKLLTSRHDFKEKNLKEISDLIKKELTEGKALGLSHTYANVRINHVINLWGADFDSNGNLKAIYVTDSDSNASIGMKKYFVGVNSAGKVAISAKEIKEDNIGAQVLGLFTLSTGQDSWNQTN', '15 ng/µL'),
  ('PRT-81 (protein) MANQEIRYSEVTPSHVTSVWTKGVTPPADFTQGEDVFHAPYVANQGWYDITKTFNGKDNLLCGAATAGNMLHWWFDQNKEQIENYLKKHPEKQKIMFGDQELLDVRKVINTKDSQTNSALFNYFRDKAFPNLSARRLGVMPDLVLDMFINGYYLNLTKTQTTDVNRTYQTKDKRGGIFDAVFTRGDQSKLLTSRHDFKEKTLKEISDLIKQELTEGKALGLSHTYANVRINHVINLWGADFDSNGNLKAIYVTDSDSNASIGMKKYFVGVNSAGKVAISAKEITEDNIGAQVLGLFTLSTGKDQWNQTN', '30 ng/µL'),
  ('PRT-73 (protein) MANQEIRYSEVTPYHVTSVWTKGVTPPANFTQGEDVFHAPYVANQGWYDITKTFNGKDDLLCGAATAGNMLHWWFDQNKEKIEAYLKKHPEKQKIMFGDQELLDVRKVINTKDDQTNSELFNYFRDKAFPGLSARRLGVMPDLVLDMFINGYYLNVTKTQTTDVNRTYQEKDRRGGIFDAVFTRGDQSKLLTSRHDFKEKNLKEISDLIKKELTEGKALGLSHTYANVRINHVINLWGADFDSNGNLKAIYVTDSDSNASIGMKKYFVGVNSAGKVAISAKEIKEDNIGAQVLGLFTLSTGQDSWNQTN', '28 ng/µL'),
  ('PRT-75 (protein) MANQEIRYSEVTPYHVTSVWTKGVTPPAKFTQGEDVFHAPYVANQGWYDITKTFNGKDDLLCGAATAGNMLHWWFDQNKEKIEAYLKKHPEKQKIMFGDQELLDVRKVINTKDDQTNSELFNYFRDKAFPGLSARRLGVMPDLVLDMFINGYRLNVTKTQTTDVNETYQTKDKRGGIFDAVFTRGDQSKLLTSRHDFKEKNLKEISDLIKKELTEGKALGLSHTYANVRINHVINLWGADFDSNGNLKAIYVTDSDSNASIGMKKYFVGVNSAGKVAISAKEIKDDNIGAQVLGLFTLSTGQDIWNQTN', '8 ng/µL');
